Assay: Human HepG2 cell viability assay in 384 well format
Assay type: toxicity, cell-based
Design: dose 125 nL, time 70.5 hour; concentration not given beside the values
Conditions: HepG2 cells, read-out: Inhibition
VALUE TYPE: cytotoxicity at 70.5 h (%)

{"columns": ["COMPOUND", "UNITS OF MEASURE", "OBSERVED MEASUREMENT"],
 "data": [
  ["CCC(=O)Nc1cc(Cl)ccc1C(=O)N(C)Cc1noc(CC)n1", "%", -5.2],
  ["Cc1cnc(C(C)(C)NC(=O)NCc2cccnc2OC(C)C)s1", "%", 2.79],
  ["O=C1N(c2ccc(Br)cc2)Cc2nc(=O)[nH]n21", "%", -16.4],
  ["Cc1cnn(C2CN(Cc3noc(-c4ccccc4)n3)C2)c1", "%", -7.62],
  ["Cc1nc(N2CCN(C(=O)c3ccco3)CC2)c2c(n1)c(C)nn2C", "%", -6.71],
  ["CCc1[nH]ncc1C(=O)N1CCCC(n2ccnc2C)C1 (centres undefined)", "%", -7.72],
  ["CN(C)C1CCCN(C(=O)NCCNC(=O)C2CCCCC2)C1 (centres undefined)", "%", 3.73],
  ["CN(CCC#N)C(=O)Cn1nnnc1C(C)(C)C", "%", -16.8],
  ["CCN(Cc1cnn(CC)c1)C(=O)CN1C(=O)CCc2ccccc21", "%", -4.74],
  ["COCCN(C)C(=O)Nc1ccc(C(=O)NCCC(=O)OC)cc1", "%", -8.51],
  ["CCC[C@H]1CN(S(=O)(=O)N(C)Cc2ccccc2)C[C@@H]1N", "%", 1.2],
  ["CC(C)CCN(C)C(=O)c1cc(CN2CCC(O)CC2)on1", "%", -0.516],
  ["CCn1nc(C)c2ncnc(NCCCN3CCOCC3)c21", "%", 6.44],
  ["Cc1nn(C)c2nc(N(Cc3cnn(C)c3)C3CCCCC3)sc12", "%", 7.12],
  ["CN(Cc1ccco1)[C@@H]1CN(C(=O)c2cnccn2)C[C@@H]2CCCO[C@@H]21", "%", -2.85],
  ["O=C(NCc1ccco1)N1CCOC(c2ccccc2Cl)C1 (centres undefined)", "%", -15.6],
  ["CCN(CCn1cccn1)C(=O)CN1C(=O)OC[C@@H]1C(C)C", "%", -3.13],
  ["Cc1nccc(C(=O)NC(CN2CCCC2=O)c2ccccc2)n1 (centres undefined)", "%", -3.75],
  ["CS(=O)(=O)N1CCn2c(C(=O)N3CCOCC3)cnc2C1", "%", -0.596],
  ["O=C(O)Cc1cnc(-c2c(Cl)cccc2Cl)s1", "%", -12.9],
  ["CC(C)Oc1ncccc1CNC(=O)N1CCC1", "%", -7.74],
  ["CN(C)Cc1cc(=O)n2c(n1)CN(Cc1ccco1)CCC2", "%", -4.34],
  ["Cc1ccccc1OCC1CCCN(c2cc(N)nc(N)n2)C1 (centres undefined)", "%", -8.34],
  ["CN(C)CC1CN(Cc2coc(-c3cccc(F)c3)n2)CCO1 (centres undefined)", "%", 3.34]
]}

The reported numbers originate from ChEMBL document CHEMBL3507680.
